Measured values drawn from paper PMC7305236 for this set.

- target.under.test: CCR10 (Homo sapiens, UniProt P46092)
- Construct: expressed in transfected cells
- Sequence (P46092 whole entry): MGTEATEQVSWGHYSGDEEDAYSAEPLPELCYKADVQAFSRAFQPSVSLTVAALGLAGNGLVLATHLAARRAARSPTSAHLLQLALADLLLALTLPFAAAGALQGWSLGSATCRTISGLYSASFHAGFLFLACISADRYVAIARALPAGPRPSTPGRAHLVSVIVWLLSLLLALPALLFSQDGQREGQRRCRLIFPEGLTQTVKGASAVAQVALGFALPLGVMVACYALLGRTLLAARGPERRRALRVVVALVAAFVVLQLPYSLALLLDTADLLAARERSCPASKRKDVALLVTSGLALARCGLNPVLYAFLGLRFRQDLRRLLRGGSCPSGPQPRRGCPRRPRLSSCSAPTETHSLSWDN
- assay.remarks: Figure S2a opioid peptide screen on chemokine receptors
- Format: cell-based
- Parameters: dose or concentration left out as unconfirmed
- assay.conditions: replicate 1, read-out: CCR10 activity, ctrl+ = 100
measure.name: activation (%)
Form entry: value (%) — number only.

// activation value for CC[C@H](C)[C@H](NC(=O)[C@H](CCCNC(=N)N)NC(=O)[C@H](CCCNC(=N)N)NC(=O)[C@H](CC(C)C)NC(=O)[C@H](Cc1ccccc1)NC(=O)CNC(=O)CNC(=O)[C@@H](N)Cc1ccc(O)cc1)C(=O)N[C@@H](CCCNC(=N)N)C(=O)N1CCC[C@H]1C(=O)N[C@@H](CCCCN)C(=O)N[C@@H](CC(C)C)C(=O)N[C@@H](CCCCN)C(=O)N[C@@H](Cc1c[nH]c2ccccc12)C(=O)N[C@@H](CC(=O)O)C(=O)N[C@@H](CC(N)=O)C(=O)N[C@@H](CCC(N)=O)C(=O)O [Dynorphin A] : 2.9
